// MIC lookup, one value per entry
# System: E. coli C 165
# protocolDetails: Minimum inhibitory concentration (MIC) in vitro, liquid medium test tube series dilution test
# Assay type: cell-based
# conditionSet: 24 hours incubation at 37° C

INSERT INTO measurements (compound, quantitykind, observedvalue) VALUES
  ('CC1(C)S[C@@H]2[C@H](NC(=O)C3(C#N)CCC3)C(=O)N2[C@H]1C(=O)O', 'MIC', '128 U/ml'),
  ('CC1(C)S[C@@H]2[C@H](NC(=O)C3CCC(Cl)C3)C(=O)N2[C@H]1C(=O)O (stereo partly shown)', 'MIC', '128 U/ml'),
  ('CC1(C)S[C@@H]2[C@H](NC(=O)C3CC(Cl)C3)C(=O)N2[C@H]1C(=O)O (stereo partly shown)', 'MIC', '128-256 U/ml');

Now, please, on to the next compound.
Problem: Find the recorded MIC belonging to CC1(C)S[C@@H]2[C@H](NC(=O)C3CC(Cl)C(Cl)C3)C(=O)N2[C@H]1C(=O)O (stereo partly shown) and report it.
Solution: 128 U/ml
